# Target system: activated hepsin (Homo sapiens, UniProt P05981)
# Construct: purchased R&D Systems 4776-SE-010
# Sequence (P05981 163-417 limits assumed): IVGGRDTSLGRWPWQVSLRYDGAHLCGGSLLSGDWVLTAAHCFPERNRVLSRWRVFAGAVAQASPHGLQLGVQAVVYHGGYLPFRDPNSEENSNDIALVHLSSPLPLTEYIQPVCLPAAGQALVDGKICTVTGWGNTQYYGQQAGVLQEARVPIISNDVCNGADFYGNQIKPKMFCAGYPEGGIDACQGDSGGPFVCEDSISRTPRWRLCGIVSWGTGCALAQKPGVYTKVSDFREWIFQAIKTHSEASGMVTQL
# Sequence (P05981 1-162 partner limits assumed): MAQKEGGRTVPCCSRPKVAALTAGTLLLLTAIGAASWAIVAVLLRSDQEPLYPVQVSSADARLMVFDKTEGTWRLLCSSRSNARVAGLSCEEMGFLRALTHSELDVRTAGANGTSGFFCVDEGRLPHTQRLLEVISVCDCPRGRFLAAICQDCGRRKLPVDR
# Assay explanation: Fluorescent kinetic enzyme assay of hepsin activity (Boc-QAR-AMC)
# Assay type: biochemical
# Condition: Table 3; average of three experiments; read-out: Hepsin IC50
pIC50: −log10 of the molar value.
# pIC50 values compiled below
Measurement type: pIC50

INSERT INTO assay_data (molecule, target_system, measurement_type, value_measured) VALUES
  ('CC(=O)N1CCC(OC(=O)N[C@@H](CC(C)C)C(=O)N[C@@H](CCCNC(=N)N)C(=O)c2nc3ccccc3s2)CC1 [Compound 8e]', 'activated hepsin (Homo sapiens, UniProt P05981)', 'pIC50', 7.70),
  ('COc1ccc(Cl)cc1S(=O)(=O)N1CCC(OC(=O)N[C@@H](CC(C)C)C(=O)N[C@@H](CCCNC(=N)N)C(=O)c2nc3ccccc3s2)CC1 [Compound 8l]', 'activated hepsin (Homo sapiens, UniProt P05981)', 'pIC50', 7.22),
  ('CC(C)C[C@H](NC(=O)OC1CCN(S(=O)(=O)c2ccccc2)CC1)C(=O)N[C@@H](CCCNC(=N)N)C(=O)c1nc2ccccc2s1 [Compound 8f]', 'activated hepsin (Homo sapiens, UniProt P05981)', 'pIC50', 7.70);
